assay type: in vivo, human; conditions: subject S01; 8 h iv infusion of d5-ALA-albumin 0.78 mg/kg BW/hr
In this section, each of the compounds is paired with its reported Time at Smax.
Quick reminder: number only, in min, skip the unit.

Would you please look over these solved cases?
- chemical string: "[2H]C([2H])([2H])C([2H])([2H])/C=C\\C/C=C\\C/C=C\\C/C=C\\C/C=C\\CCCCCC(=O)O"
  measurement type: "Time at Smax"
  value measured: 94
- chemical string: "CC/C=C\\C/C=C\\C/C=C\\C/C=C\\C/C=C\\CCCC(=O)O"
  measurement type: "Time at Smax"
  value measured: 190
- chemical string: "CC/C=C\\C/C=C\\C/C=C\\C/C=C\\C/C=C\\CCCCCC(=O)O"
  measurement type: "Time at Smax"
  value measured: 94

Exercise: Identify measured Time at Smax corresponding to "CC/C=C\C/C=C\C/C=C\C/C=C\C/C=C\CCCCCCCC(=O)O"
Key: 98

Exercise: Identify measured Time at Smax corresponding to "CC/C=C\C/C=C\C/C=C\C/C=C\C/C=C\C/C=C\CCC(=O)O"
Key: 109

###

type: in vivo, human; conditions: subject S01
In this section, each of the molecules is paired with its reported k1 (synthesis-secretion coefficient).
Quick reminder: number only, in mL/min, skip the unit.

Would you please look over these solved cases?
- molecule: "CC/C=C\\C/C=C\\C/C=C\\C/C=C\\C/C=C\\CCCC(=O)O [EPA, eicosapentaenoic acid]"
  k1 (synthesis-secretion coefficient), mL/min: 1.91
- molecule: "CC/C=C\\C/C=C\\C/C=C\\C/C=C\\C/C=C\\CCCCCC(=O)O [DPAn-3, docosapentaenoic acid]"
  k1 (synthesis-secretion coefficient), mL/min: 1.44
- molecule: "CC/C=C\\C/C=C\\C/C=C\\C/C=C\\C/C=C\\C/C=C\\CCC(=O)O [DHA, Docosahexaenoic acid]"
  k1 (synthesis-secretion coefficient), mL/min: 0.39

API: the following record is the query input.
Exercise: Identify measured k1 (synthesis-secretion coefficient) corresponding to CC/C=C\C/C=C\C/C=C\C/C=C\C/C=C\CCCCCCCC(=O)O [TPAn-3, tetracosapentaenoic acid]
Key: 0.23

###

test: Plasma unlabeled fatty acid concentrations; format: in vivo, human; conditions: subject S01; unlabeled; mean of 17 time points; low linoleate diet
// assign yes if Fatty acid concentration in plasma total lipids (mean) falls strictly below 20 nmol/mL, else no (ties count as no)

Some solved entries appear below for comparison.
- chemical string: "CCCCC/C=C\\C/C=C\\CCCCCCCCCC(=O)O"
  assigned category: "yes"
- chemical string: "CCCCCCCCCCCCCCCCCCCCCCCC(=O)O"
  assigned category: "no"
- chemical string: "CCCCCCCCCCCCCC(=O)O"
  assigned category: "no"
- chemical string: "CC/C=C\\C/C=C\\C/C=C\\C/C=C\\C/C=C\\CCCCCCCC(=O)O"
  assigned category: "yes"

Exercise: Given the entry "CCCCCCCCCCCCCCCCCC(=O)O" , would its reported Fatty acid concentration in plasma total lipids (mean) be below 20 nmol/mL?
Key: no

Exercise: Given the entry "CCCCCCCCCCCCCCCCCCCCCC(=O)O" , would its reported Fatty acid concentration in plasma total lipids (mean) be below 20 nmol/mL?
Key: no

Exercise: Given the entry "CCCCCC/C=C/CCCCCCCCCC(=O)O" , would its reported Fatty acid concentration in plasma total lipids (mean) be below 20 nmol/mL?
Key: no

Exercise: Given the entry "CC/C=C\C/C=C\C/C=C\CCCCCCCC(=O)O" , would its reported Fatty acid concentration in plasma total lipids (mean) be below 20 nmol/mL?
Key: no

Exercise: Given the entry "CCCCC/C=C\C/C=C\C/C=C\C/C=C\CCCCCC(=O)O" , would its reported Fatty acid concentration in plasma total lipids (mean) be below 20 nmol/mL?
Key: yes

Exercise: Given the entry "CCCCCCCC/C=C\CCCCCCCCCC(=O)O" , would its reported Fatty acid concentration in plasma total lipids (mean) be below 20 nmol/mL?
Key: yes
